Reference source: patent US11945796B2

# ASSAYED SYSTEM: human SARM1(50-724) (Homo sapiens, UniProt Q6SZW1)
# Sequence (Q6SZW1 50-724): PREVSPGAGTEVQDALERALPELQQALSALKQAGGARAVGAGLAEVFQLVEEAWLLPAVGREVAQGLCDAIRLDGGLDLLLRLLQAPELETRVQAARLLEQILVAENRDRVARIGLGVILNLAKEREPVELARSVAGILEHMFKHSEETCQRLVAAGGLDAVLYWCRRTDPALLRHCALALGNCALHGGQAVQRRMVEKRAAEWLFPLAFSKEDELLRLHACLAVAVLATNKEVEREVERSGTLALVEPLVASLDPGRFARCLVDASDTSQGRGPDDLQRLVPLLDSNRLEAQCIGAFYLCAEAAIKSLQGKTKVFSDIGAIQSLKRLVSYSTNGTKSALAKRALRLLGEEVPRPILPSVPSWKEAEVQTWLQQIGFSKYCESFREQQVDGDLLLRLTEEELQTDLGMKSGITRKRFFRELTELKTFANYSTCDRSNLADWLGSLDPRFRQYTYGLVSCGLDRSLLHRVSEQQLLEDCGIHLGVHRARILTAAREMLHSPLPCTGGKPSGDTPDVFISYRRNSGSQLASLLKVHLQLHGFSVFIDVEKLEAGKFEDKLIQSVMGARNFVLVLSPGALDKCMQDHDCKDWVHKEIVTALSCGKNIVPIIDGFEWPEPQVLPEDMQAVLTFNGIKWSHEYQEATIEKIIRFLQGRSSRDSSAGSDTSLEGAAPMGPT
MEASURED PROPERTY: IC50

COMPOUND: CC(c1ccncc1)c1ccn(CC#N)n1 (single isomer, unassigned) [Example 12a]
RESULT: 1 to 10 µM

IC50 recorded for this compound, `O=C(CCc1cc(F)ccc1F)Nc1ccn(Cc2ccncc2)n1` , is > 100 µM

Sure, the documented IC50 for `O=C(Nc1ccn(Cc2ccncc2)n1)c1cc(Br)cs1` is 10 to 100 µM

Short answer for CC(c1ccncc1)c1ccn(CC#N)n1 (single isomer, unassigned) [Example 12b] : IC50 was < 1 µM
